tested on: MCF7 breast; experiment: NCI-60 one-dose screen, 48 h (100 = growth as untreated, 0 = no growth, -100 = all killed); settings: 10 µM unless noted
Compounds without any hit were thinned out: in the full panel of roughly 83,000, 20% have a hit.
experimentalEndpoint: growth (%)
Please state the figure in %; there is no need to write the unit.

growth in this record for Cc1ccc(S(=O)(=O)c2nc(S(=O)(=O)c3ccc(C)cc3)c(N3CCC(O)CC3)s2)cc1 : 43.4

growth in this record for CC(=O)Nc1ccc(-c2cn(-c3cccc(C(=O)Nc4ccc(N5CCN(C)CC5)cc4)c3)nn2)cn1 : 45.9

growth in this record for N/C(=N\c1nc2ccccc2s1)NC(=O)NCCCCCCO : 30

growth in this record for CC1=C(C(=O)OCc2ccccc2)C(c2c(O)cc(O)cc2O)n2c(nc3ccccc32)N1 (stereo not drawn) : 25

growth in this record for COc1cc(/C=C2\C(=N)N=C(SCc3nc4ccccc4[nH]3)NC2=O)ccc1O : 93.7

growth in this record for C/C(=N\N=C1/C(=O)Nc2ccccc21)c1ccc2c(c1)Nc1ccccc1S2 : 22.2

growth in this record for Cn1cc(NC(=O)c2cc(NC(=O)c3ccc(/C=C/c4ccccc4)cc3)cn2C)cc1C(=O)NCCCN1CCOCC1 : -84.8

growth in this record for COc1cc(C2CC(c3cc(OC)c(OC)c(OC)c3)=NN2C(C)=O)ccc1OCc1ccccc1 (stereo not drawn) : 17.1

growth in this record for COc1ccc2c(c1)c(-c1cc(N)n3nc(-c4cn(C)c5ccccc45)cc3n1)cn2C : -60.6

growth in this record for O=C(c1ccc(OCCN2CCOCC2)cc1)C1[C@H](c2ccc(Cl)cc2)[C@@H](c2ccccc2)NC12C(=O)Nc1ccc(Cl)cc12 (stereo partly drawn) : 4.28

growth in this record for Cn1cc(-c2cc(N)n3nc(-c4cn(C)c5ccccc45)cc3n2)c2cc(Cl)ccc21 : -69.9

growth in this record for CC(=O)Nc1cccc(Nc2nc(N[C@H]3CCCc4ccccc43)c3ccccc3n2)c1 : 95.6

growth in this record for CN(C)CCn1c2ccccc2c2nc3cc4ccccc4cc3nc21 : -9.03

growth in this record for CC(C)CSc1nc(NCCc2c[nH]c3ccccc23)c(C#N)c(-c2ccc(Cl)cc2)n1 : 16.4

growth in this record for COc1cc2oc(-c3cccc(C(=O)Nc4ccc(Cl)cc4)c3)cc(=O)c2c(OCCNC(=O)[C@H](CCC(=O)OC(C)(C)C)NC(=O)OC(C)(C)C)c1OC : 83

growth in this record for CCN(CC)c1ccnc(CNCCSC(c2ccccc2)(c2ccccc2)c2ccc(C)cc2)c1 : -82.4

growth in this record for COc1cc2c(c(OC)c1OC)C(=O)CC(c1cccc(NC(=O)c3cc(NC(=O)[C@H](CO)NC(=O)OC(C)(C)C)ccc3Cl)c1)O2 (stereo partly drawn) : 12.2

growth in this record for Cc1cc2nc3c4ccccc4n(CCCN(C)C)c3nc2cc1C : -30

growth in this record for COc1ccc2cc([C@H](C)C(=O)N/N=C/c3ccc(Br)cc3)ccc2c1 : 90.7

growth in this record for C=CC(=O)Nc1ccc(C)c(Oc2ccc(Cl)cc2)c1 : 36.8

growth in this record for Cc1c(C(=O)NNC(=O)c2ccc(Cl)cc2)nnn1-c1ccc(Cl)cc1 : 81.2

growth in this record for O=C(NN1C(=O)/C(=C/C=C/c2ccc([N+](=O)[O-])o2)SC1=S)c1ccccc1O : -49.7

growth in this record for COc1ccc(C(=O)Nc2n[nH]c(Nc3ccccc3)c2C#N)cc1 : 94.8

growth in this record for C=C1CC[C@@H]2[C@]3(C)COC(c4ccco4)O[C@@H]3CC[C@@]2(C)[C@@H]1C/C=C1/C(=O)OCC1OC(C)=O (stereo partly drawn) : 13.4

growth in this record for O=C1CC(Sc2n[nH]c(-c3ccncc3)n2)C(=O)N1c1ccc(Br)cc1 (stereo not drawn) : 99.8

growth in this record for COc1ccc(C(=O)/C=C/c2ccccc2Br)cc1S(N)(=O)=O : -70.5

growth in this record for COc1ccc(NC(=O)Cn2c(O)c(N=Nc3ccc(S(N)(=O)=O)cc3)c3ccccc32)cc1 : 31.2

growth in this record for C=C1CCC2C3(C)COC(c4ccc(F)cc4)OC3CCC2(C)C1CC(O)C1=CCOC1=O (stereo not drawn) : 12.3

growth in this record for COc1ccc(C(=O)/C=C/c2ccc(OC)c(OCc3ccccc3)c2)cc1OC : 7.12

growth in this record for COc1ccc(C(=O)/C=C/c2ccccc2Cl)cc1S(N)(=O)=O : 96.2

growth in this record for CCCCCCCCc1ccc(C(=O)Nc2ccc(C)cc2C(=O)O)cc1C : 93.8

growth in this record for COc1cc2c(c(OC)c1OC)C(=O)CC(c1cccc(NC(=O)[C@@H](N)CC(C)C)c1)O2 (stereo partly drawn) : 86.8

growth in this record for NS(=O)(=O)c1ccc(N=Nc2c(O)n(CC(=O)Nc3ccccc3)c3ccccc23)cc1 : 14.9

growth in this record for N/C(=N\c1nc2ccccc2s1)NC(=O)Nc1ccccc1Br : 8.24

growth in this record for N/N=C(\N)c1c(N)nc(=S)[nH]c1-c1ccc(Cl)cc1Cl : 95.6

growth in this record for CCOc1ccc(-c2c(C#N)c(-c3ccc(Cl)cc3)nc3n[nH]c(-c4ccc(Cl)cc4)c23)cc1OC : 26.2

growth in this record for Cn1cc(-c2nc(N)nnc2-c2c[nH]c3ccc(Br)cc23)c2cccnc21 : 21.4

growth in this record for O=C(/C=C/c1cccc(OCc2ccccc2)c1)c1nc2ccccc2[nH]1 : 3.28

Attribution: PubChem BioAssay (NCI)
